method.notes: physchem
condition.info: 22.5 °C, pH 3, aqueous buffer, thermodynamic from solid
quantity.measured: solubility at 30 min

# solubility at 30 min of Cl.O=C1[C@@H]2[C@H]3CC[C@H](C3)[C@@H]2C(=O)N1C[C@@H]1CCCC[C@H]1CN1CCN(c2nsc3ccccc23)CC1 [Compound 1] = > 20 µg/mL

====

method.notes: physchem
condition.info: 22.5 °C, pH 5, aqueous buffer, thermodynamic from solid
Description: According to the method disclosed in the Pharmacopoeia of Japan, the solubility (μg/ml) of Compound 1 was measured when treated for 30 minutes under the following conditions. • (1) Conditions for measurement of solubility: Solvent: Diluted McIlvaine buffer
quantity.measured: solubility at 30 min (µg/mL)
Report the value in µg/mL with no unit label.

# solubility at 30 min of Cl.O=C1[C@@H]2[C@H]3CC[C@H](C3)[C@@H]2C(=O)N1C[C@@H]1CCCC[C@H]1CN1CCN(c2nsc3ccccc23)CC1 = 0.7
